Tested on: K562 leukemia cells
Assay: MTT assay, in vitro inhibitory activity on cells
Assay type: cell-based
Conditions: Homo sapiens, typically 48 hours, read-out: IC50 K562 Chronic myelogenous leukemia cells
measured_endpoint: IC50 (µM)

I: Cc1ccc(NC(=O)Nc2ccc(CN3CCN(C)CC3)c(C(F)(F)F)c2)cc1C#Cc1cnc2[nH]ncc2c1
II: Cc1ccc(C(=O)Nc2ccc(CN3CCN(C)CC3)c(C(F)(F)F)c2)cc1C#Cc1ccc(-c2ncc(C(F)(F)F)[nH]2)nc1
III: Cc1ccc(NC(=O)Nc2ccc(CN3CCN(C)CC3)c(C(F)(F)F)c2)cc1C#Cc1cn(C)c(-c2ncc(C(F)(F)F)[nH]2)n1
IV: Cc1ccc(C(=O)Nc2ccc(CN3CCN(C)CC3)c(C(F)(F)F)c2)cc1C#Cc1ccn2nc(N)nc2c1
V: CNc1nc2cc(C#Cc3cc(C(=O)Nc4ccc(CN5CCN(C)CC5)c(C(F)(F)F)c4)ccc3C)ccn2n1
[Q] Can you order these entries from above by IC50? Start with the largest number and work down. Reply with the labels, ordered as the question asks.
[A] IV, V, I, II, III
(IV: 13.5 µM, V: 6.79 µM, I: 4.13 µM, II: 1.43 µM, III: 0.16 µM)

P: CNc1nc2cc(C#Cc3cc(NC(=O)Nc4ccc(CN5CCN(C)CC5)c(C(F)(F)F)c4)ccc3C)ccn2n1
Q: Cc1ccc(NC(=O)Nc2ccc(CN3CCN(C)CC3)c(C(F)(F)F)c2)cc1C#Cc1ccn2nc(N(C)C)nc2c1
R: Cc1cn(-c2cc(C(=O)Nc3ccc(F)c(C#Cc4ccc(-c5ncc(C(F)(F)F)[nH]5)nc4)c3)cc(C(F)(F)F)c2)cn1
S: Cc1ccc(C(=O)Nc2ccc(CN3CCN(C)CC3)c(C(F)(F)F)c2)cc1C#Cc1cn(C)c(-c2ncc[nH]2)n1
[Q] Sort the molecules on IC50; start with the lowest figure. Reply with the labels, ordered as the question asks.
[A] Q, R, S, P
(Q: 0.42 µM, R: 0.94 µM, S: 1.92 µM, P: 5.07 µM)

====

Assay: Pharmacokinetic studies in male SD rats
Format: in vivo
Settings: rat, plasma, po, I.G. 15 mg/kg
Where a name gives a salt, the structure may show the parent alone.
measured_endpoint: half-life (h)
Field: numeric (h). Do not append units.

// sample Cc1ccc(C(=O)Nc2ccc(CN3CCN(C)CC3)c(C(F)(F)F)c2)cc1C#Cc1cnc2[nH]ccc2n1 [Example 27, hydrochloride] , its half-life was 4.1

====

Assay: Pharmacokinetic studies in male SD rats
Type: in vivo
Details: rat, plasma, iv, I.V. 3 mg/kg
Where a name gives a salt, the structure may show the parent alone.
measured_endpoint: AUC(0-inf) (µg·h/mL)
Field: numeric (µg·h/mL). Do not append units.

// sample Cc1ccc(C(=O)Nc2ccc(CN3CCN(C)CC3)c(C(F)(F)F)c2)cc1C#Cc1cnc2[nH]ccc2n1 [Example 27, hydrochloride] , its AUC(0-inf) was 3.38

====

Assay: Pharmacokinetic studies in male SD rats
Format: in vivo
Conditions: rat, plasma, oral, I.G. 15 mg/kg vs I.V. 3 mg/kg, read-out: F (oral bioavailability)
Where a name gives a salt, the structure may show the parent alone.
measured_endpoint: bioavailability (%)
Field: numeric (%). Do not append units.

// sample Cc1ccc(C(=O)Nc2ccc(CN3CCN(C)CC3)c(C(F)(F)F)c2)cc1C#Cc1cnc2[nH]ccc2n1 [Example 27, hydrochloride] , its bioavailability was 32.6
